Taken from ChEMBL document CHEMBL3046615.

System: Heterodera zeae
Assay: Nematicidal activity against Heterodera zeae infective stage larvae assessed as nematode mortality at 0.5% under light conditions measured 48 hr post dose by stereoscopic microscopy
Type: functional
Lab note - cut at 50% for mortality: 1 if strictly below, 0 if not.

compound	label
COC(=O)c1ccc(O)c(O)c1 [METHYL PROTOCATECHUATE]	0
CCCCCCCC/C=C\CCCCCCCC(=O)O	0
CCCCCCCCCCCCCC(=O)O	1
COc1ccc(C(=O)O)cc1	1
CCCCCCCCCCCCCCCCCC(=O)O	0

Is 50% strictly greater than the compound's reported mortality? compound: `COc1c(O[C@@H]2O[C@H](CO)[C@@H](O)[C@H](O)[C@H]2O)cc2oc(-c3ccc(O)c(O)c3)c(O)c(=O)c2c1O`
1

Is 50% strictly greater than the compound's reported mortality? compound: `O=C(O)c1ccccc1`
1

Is 50% strictly greater than the compound's reported mortality? compound: `O=C(O)c1ccc(O)cc1`
1

Is 50% strictly greater than the compound's reported mortality? compound: `C[C@@H]1O[C@@H](OC[C@H]2O[C@@H](Oc3c(-c4ccc(O)c(O)c4)oc4cc(O)cc(O)c4c3=O)[C@H](O)[C@@H](O)[C@@H]2O)[C@H](O)[C@H](O)[C@H]1O`
0

* * *

mortality reference
Tested on: Heterodera zeae
Assay: Nematicidal activity against Heterodera zeae infective stage larvae assessed as nematode mortality at 1% under light conditions measured 72 hr post dose by stereoscopic microscopy
Assay type: functional
Kindly answer with a numeric value in %, unit omitted.

Worked examples follow.
>>> df
                                 smilescode    measure  assayvalue
0                         CCCCCCCCCCCCCCCCO  mortality         100
1                        COc1ccc(C(=O)O)cc1  mortality          80
2  O=c1c(O)c(-c2ccc(O)c(O)c2)oc2cc(O)cc(O)c12  mortality          70
3                            O=C(O)c1ccccc1  mortality          70

API: value(readout=mortality, system=Heterodera zeae) for record `COc1c(O)cc2oc(-c3ccc(O)c(O)c3)c(O)c(=O)c2c1O`
100

API: value(readout=mortality, system=Heterodera zeae) for record `O=C(O)c1ccc(O)cc1`
100

* * *

System: Heterodera zeae
Experiment: Nematicidal activity against Heterodera zeae infective stage larvae assessed as nematode mortality at 0.25% under light conditions measured 72 hr post dose by stereoscopic microscopy
Type: functional
mortality reference
Kindly answer with a numeric value in %, unit omitted.

Query (compound): `O=c1c(O)c(-c2ccc(O)c(O)c2)oc2cc(O)cc(O)c12` ; field requested: mortality
70

Query (compound): `COc1ccc(C(=O)O)cc1OC` ; field requested: mortality
100

Query (compound): `O=C(O)c1ccccc1` ; field requested: mortality
0

Query (compound): `CCCCCCCCCCCCCC(=O)O` ; field requested: mortality
50

Query (compound): `CCCCCCCCCCCCCCCCO` ; field requested: mortality
80

Query (compound): `O=C(O)c1ccc(O)cc1` ; field requested: mortality
50

Query (compound): `CCCCCCCC/C=C\CCCCCCCC(=O)O` ; field requested: mortality
100

Query (compound): `COc1c(O[C@@H]2O[C@H](CO)[C@@H](O)[C@H](O)[C@H]2O)cc2oc(-c3ccc(O)c(O)c3)c(O)c(=O)c2c1O` ; field requested: mortality
20

Query (compound): `COc1c(O)cc2oc(-c3ccc(O)c(O)c3)c(O)c(=O)c2c1O` ; field requested: mortality
100

Query (compound): `COc1ccc(C(=O)O)cc1` ; field requested: mortality
50

Query (compound): `CCCCCCCCCCCCCCCCCC(=O)O` ; field requested: mortality
100

Query (compound): `CCCCCCCCCCCCCCCC(=O)O` ; field requested: mortality
50

Query (compound): CCCCCCCC/C=C\CCCCCCCC(=O)OC [METHYL OLEATE] ; field requested: mortality
100
